Experiment: Half-life in ICR mouse at 5 mg/kg, po by LC-MS/MS analysis
Type: ADME, organism-based
Conditions: in vivo
half-life listing for selected molecules.
Give just the number in h; leave the unit off.

O=C(O)c1ccc2nc(CN3CCC(c4cccc(OCc5ccc(C6COC6)cc5F)n4)CC3)n(C[C@@H]3CCO3)c2c1
3.86

(Q) Can you share its half-life? I mean this molecule: N#Cc1ccc(COc2cccc(C3CCN(Cc4nc5ccc(C(=O)O)cc5n4C[C@@H]4CCO4)CC3)n2)c(F)c1 [DANUGLIPRON]
(A) 1.62

----------
Biological target: Cytochrome P450 3A4 (Homo sapiens)
Sequence (P08684 whole entry): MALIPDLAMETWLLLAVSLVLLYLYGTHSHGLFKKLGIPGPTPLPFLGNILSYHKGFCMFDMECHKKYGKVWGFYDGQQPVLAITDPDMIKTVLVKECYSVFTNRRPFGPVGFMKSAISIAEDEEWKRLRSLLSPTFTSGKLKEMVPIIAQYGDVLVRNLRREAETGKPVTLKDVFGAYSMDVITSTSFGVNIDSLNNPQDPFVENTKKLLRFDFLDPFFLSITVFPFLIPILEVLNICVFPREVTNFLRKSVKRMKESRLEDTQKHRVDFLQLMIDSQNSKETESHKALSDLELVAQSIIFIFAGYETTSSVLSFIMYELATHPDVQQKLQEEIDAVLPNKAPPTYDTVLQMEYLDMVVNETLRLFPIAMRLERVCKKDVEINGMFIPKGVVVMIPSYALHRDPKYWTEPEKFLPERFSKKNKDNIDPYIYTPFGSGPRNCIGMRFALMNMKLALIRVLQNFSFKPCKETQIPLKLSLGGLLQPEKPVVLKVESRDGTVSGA
Assay: Inhibition of CYP3A4 in human liver microsomes using testosterone as substrate preincubated for 5 mins followed by NADPH addition and measured after 5 mins by LC-MS/MS analysis
Assay type: ADME, Microsome
pIC50: −log10 of the molar value.
Assay Metric: pIC50

O=C(O)c1ccc2nc(CN3CCC(c4cccc(OCc5ccc(C6COC6)cc5F)n4)CC3)n(C[C@@H]3CCO3)c2c1
< 5.00

Now for the compound whose pIC50 we want.
(Q) # pIC50 lookup, item N#Cc1ccc(COc2cccc(C3CCN(Cc4nc5ccc(C(=O)O)cc5n4C[C@@H]4CCO4)CC3)n2)c(F)c1
(A) < 5.00

----------
CL/F overview
Assay: Oral clearance in rat at 5 mg/kg, po by LC-MS/MS analysis
Type: ADME, organism-based
Conditions: in vivo
Report the figure in L/h/kg without appending any unit label.

N#Cc1ccc(COc2cccc(C3CCN(Cc4nc5ccc(C(=O)O)cc5n4C[C@@H]4CCO4)CC3)n2)c(F)c1
33.2

(Q) Find the recorded CL/F belonging to O=C(O)c1ccc2nc(CN3CCC(c4cccc(OCc5ccc(C6COC6)cc5F)n4)CC3)n(C[C@@H]3CCO3)c2c1 and report it.
(A) 3.17

----------
Sequence of the target: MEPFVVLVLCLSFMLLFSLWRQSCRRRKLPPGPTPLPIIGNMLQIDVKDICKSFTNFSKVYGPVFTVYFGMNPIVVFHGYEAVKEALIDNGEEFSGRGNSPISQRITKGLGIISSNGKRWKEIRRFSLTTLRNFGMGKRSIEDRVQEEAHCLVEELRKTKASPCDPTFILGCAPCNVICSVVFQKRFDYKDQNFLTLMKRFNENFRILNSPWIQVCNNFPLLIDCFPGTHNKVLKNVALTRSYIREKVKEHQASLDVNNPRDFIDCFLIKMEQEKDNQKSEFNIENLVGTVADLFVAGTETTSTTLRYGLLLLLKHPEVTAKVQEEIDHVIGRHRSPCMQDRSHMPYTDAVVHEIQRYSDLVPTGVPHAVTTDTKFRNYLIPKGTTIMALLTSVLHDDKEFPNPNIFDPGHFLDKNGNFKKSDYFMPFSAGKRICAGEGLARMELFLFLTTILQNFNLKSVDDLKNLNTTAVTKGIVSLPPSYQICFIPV
Readings of pIC50 for the listed compounds
Friendly reminder that pIC50 comes from taking -log10 of the concentration in mol/L.

N#Cc1ccc(COc2cccc(C3CCN(Cc4nc5ccc(C(=O)O)cc5n4C[C@@H]4CCO4)CC3)n2)c(F)c1
5.90

(Q) What does the data say about its pIC50? Entry: O=C(O)c1ccc2nc(CN3CCC(c4cccc(OCc5ccc(C6COC6)cc5F)n4)CC3)n(C[C@@H]3CCO3)c2c1
(A) 6.66

----------
Target: 5-hydroxytryptamine receptor 1A (Homo sapiens, UniProt P08908)
Sequence (P08908 whole entry): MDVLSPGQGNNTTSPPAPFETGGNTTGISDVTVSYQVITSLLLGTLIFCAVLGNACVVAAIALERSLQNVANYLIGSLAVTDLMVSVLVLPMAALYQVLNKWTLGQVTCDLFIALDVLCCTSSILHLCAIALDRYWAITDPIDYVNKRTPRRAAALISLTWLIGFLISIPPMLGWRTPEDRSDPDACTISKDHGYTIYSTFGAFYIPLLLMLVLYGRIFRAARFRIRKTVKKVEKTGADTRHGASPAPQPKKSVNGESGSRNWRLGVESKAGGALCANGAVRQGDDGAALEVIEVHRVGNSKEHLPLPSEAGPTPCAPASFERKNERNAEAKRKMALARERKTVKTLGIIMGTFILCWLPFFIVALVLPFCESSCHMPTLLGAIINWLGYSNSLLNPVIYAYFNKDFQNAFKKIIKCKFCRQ
Assay Metric: pIC50
By convention, pIC50 is the negative base-10 log of a molar concentration.

(Q) Name the reported pIC50 value associated with the compound N#Cc1ccc(COc2cccc(C3CCN(Cc4nc5ccc(C(=O)O)cc5n4C[C@@H]4CCO4)CC3)n2)c(F)c1
(A) 5.62

----------
Experiment: Cmax in cynomolgus monkey at 2 mg/kg, iv
Type: ADME, organism-based, Macaca fascicularis
Details: in vivo
Catalogue of compounds with associated Cmax
Please make sure the unit comes right after the number.

N#Cc1ccc(COc2cccc(C3CCN(Cc4nc5ccc(C(=O)O)cc5n4C[C@@H]4CCO4)CC3)n2)c(F)c1
670 nM

Please turn your attention to the following entry.
(Q) Query: Cmax; subject: O=C(O)c1ccc2nc(CN3CCC(c4cccc(OCc5ccc(C6COC6)cc5F)n4)CC3)n(C[C@@H]3CCO3)c2c1
(A) 207 nM

----------
Target: hERG (KCNH2) (Homo sapiens)
Sequence (Q12809 whole entry): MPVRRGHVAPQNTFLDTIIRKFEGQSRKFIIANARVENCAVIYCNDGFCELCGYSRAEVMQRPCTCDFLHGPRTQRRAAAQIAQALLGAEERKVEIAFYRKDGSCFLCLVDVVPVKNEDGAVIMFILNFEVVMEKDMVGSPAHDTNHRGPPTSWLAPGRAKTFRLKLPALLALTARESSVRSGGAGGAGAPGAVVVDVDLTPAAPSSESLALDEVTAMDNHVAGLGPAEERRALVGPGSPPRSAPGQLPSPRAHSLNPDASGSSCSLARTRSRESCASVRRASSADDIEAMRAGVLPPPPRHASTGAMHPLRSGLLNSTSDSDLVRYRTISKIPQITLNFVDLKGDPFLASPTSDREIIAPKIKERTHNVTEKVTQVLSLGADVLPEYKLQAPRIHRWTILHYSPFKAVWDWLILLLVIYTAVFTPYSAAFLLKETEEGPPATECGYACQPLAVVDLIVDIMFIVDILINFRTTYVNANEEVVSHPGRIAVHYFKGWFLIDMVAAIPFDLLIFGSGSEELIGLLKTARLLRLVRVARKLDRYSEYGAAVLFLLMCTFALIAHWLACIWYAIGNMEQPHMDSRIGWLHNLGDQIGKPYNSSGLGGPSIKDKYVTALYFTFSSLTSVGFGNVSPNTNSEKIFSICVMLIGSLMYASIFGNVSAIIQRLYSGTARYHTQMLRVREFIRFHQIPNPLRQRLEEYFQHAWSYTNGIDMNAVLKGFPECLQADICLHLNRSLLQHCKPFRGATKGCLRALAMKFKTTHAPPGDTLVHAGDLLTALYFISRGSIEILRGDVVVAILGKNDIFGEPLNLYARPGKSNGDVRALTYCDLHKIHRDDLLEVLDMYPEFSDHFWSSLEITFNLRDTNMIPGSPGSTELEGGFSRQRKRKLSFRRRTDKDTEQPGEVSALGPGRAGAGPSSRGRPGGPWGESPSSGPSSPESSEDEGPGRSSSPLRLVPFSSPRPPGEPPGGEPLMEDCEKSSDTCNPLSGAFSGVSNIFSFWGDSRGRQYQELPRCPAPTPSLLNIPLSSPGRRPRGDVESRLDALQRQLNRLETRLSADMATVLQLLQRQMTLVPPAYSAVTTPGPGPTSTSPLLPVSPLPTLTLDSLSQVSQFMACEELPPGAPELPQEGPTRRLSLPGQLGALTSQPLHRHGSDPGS
Assay: Inhibition of human ERG at 10 uM by whole cell patch clamp method relative to control
Format: toxicity
Assay Metric: inhibition at 10 µM (%)
Report the value in % with no unit label.

(Q) Can you share its inhibition at 10 µM? I mean this compound: O=C(O)c1ccc2nc(CN3CCC(c4cccc(OCc5ccc(C6COC6)cc5F)n4)CC3)n(C[C@@H]3CCO3)c2c1
(A) 40.7

----------
Listed next: entries and their corresponding half-life.
Assay: Half-life in rat at 2 mg/kg, iv by LC-MS/MS analysis
Assay type: ADME, organism-based
Details: in vivo
Only the number, expressed in min, is required.

N#Cc1ccc(COc2cccc(C3CCN(Cc4nc5ccc(C(=O)O)cc5n4C[C@@H]4CCO4)CC3)n2)c(F)c1 [DANUGLIPRON]
19.2

Here's the next entry for you.
(Q) Which value of half-life has been reported for O=C(O)c1ccc2nc(CN3CCC(c4cccc(OCc5ccc(C6COC6)cc5F)n4)CC3)n(C[C@@H]3CCO3)c2c1 in the records?
(A) 12.6

----------
Test: AUC in rat at 2 mg/kg, iv by LC-MS/MS analysis
Format: ADME, organism-based
Details: in vivo
Assay Metric: AUC (ng·h/mL)
Give the quantity in ng·h/mL, number only.

O=C(O)c1ccc2nc(CN3CCC(c4cccc(OCc5ccc(C6COC6)cc5F)n4)CC3)n(C[C@@H]3CCO3)c2c1
530

Now consider a different compound.
(Q) Given the entry N#Cc1ccc(COc2cccc(C3CCN(Cc4nc5ccc(C(=O)O)cc5n4C[C@@H]4CCO4)CC3)n2)c(F)c1 [DANUGLIPRON] , report its measured AUC.
(A) 520

----------
Assay: Apparent volume of distribution in ICR mouse at 2 mg/kg, iv by LC-MS/MS analysis
Type: ADME, organism-based
Conditions: in vivo, read-out: Vz
Assay Metric: Vd (L/kg)
Your answer is read as L/kg, so omit the unit and give the number.

N#Cc1ccc(COc2cccc(C3CCN(Cc4nc5ccc(C(=O)O)cc5n4C[C@@H]4CCO4)CC3)n2)c(F)c1
4.26

(Q) Need Vd, item O=C(O)c1ccc2nc(CN3CCC(c4cccc(OCc5ccc(C6COC6)cc5F)n4)CC3)n(C[C@@H]3CCO3)c2c1
(A) 12.2

----------
Assay: Half-life in rat at 5 mg/kg, po by LC-MS/MS analysis
Assay type: ADME, organism-based
Conditions: in vivo
Recorded half-life values for a group of compounds are listed next.
Reply numerically in min, unit not repeated.

N#Cc1ccc(COc2cccc(C3CCN(Cc4nc5ccc(C(=O)O)cc5n4C[C@@H]4CCO4)CC3)n2)c(F)c1
79.8

# input for lookup
(Q) Entry under review: O=C(O)c1ccc2nc(CN3CCC(c4cccc(OCc5ccc(C6COC6)cc5F)n4)CC3)n(C[C@@H]3CCO3)c2c1 . Reported half-life?
(A) 50.4

----------
Experiment: Permeability across basolateral to apical side in human Caco-2 cells at 10 uM incubated for 120 mins by LC-MS/MS analysis
Format: ADME, cell-based
Details: read-out: permeability
# maps each entry to its Papp B→A at 2 h, 10 µM
Give a bare numeral; the unit ×10⁻⁶ cm/s is implied.

O=C(O)c1ccc2nc(CN3CCC(c4cccc(OCc5ccc(C6COC6)cc5F)n4)CC3)n(C[C@@H]3CCO3)c2c1
16.5

(Q) Looking for the measured Papp B→A at 2 h, 10 µM of N#Cc1ccc(COc2cccc(C3CCN(Cc4nc5ccc(C(=O)O)cc5n4C[C@@H]4CCO4)CC3)n2)c(F)c1 , can you help?
(A) 21.7

----------
Assay: Metabolic stability in human liver microsomes assessed as half life at […] incubated upto 45 mins in presence of NADPH by LC-MS/MS analysis
Format: ADME, Microsome
Field: label. Allowed values: yes (1) (half-life < 2 h) or no (0) (half-life >= 2 h).

Solved cases (4 shown):
O=C(O)c1ccc2nc(CN3CCC(c4cccc(OCc5ccc(C6COC6)cc5F)n4)CC3)n(C[C@@H]3CCO3)c2c1
no (0)
O=C(O)c1ccc2nc(CN3CCC(c4cccc(OCc5ccc(C6COC6)cn5)n4)CC3)n(C[C@@H]3CCO3)c2c1
yes (1)
N#Cc1ccc(COc2cccc(C3CCN(Cc4nc5ccc(C(=O)O)cc5n4C[C@@H]4CCO4)CC3)n2)c(F)c1
yes (1)
O=C(O)c1ccc2nc(CN3CCC(c4cccc(OCc5ccc(C6COC6)cc5Cl)n4)CC3)n(C[C@@H]3CCO3)c2c1
no (0)

Continue with the compound presented below.
(Q) Dear reviewer, please state whether COc1cc(C2COC2)ccc1COc1cccc(C2CCN(Cc3nc4ccc(C(=O)O)cc4n3C[C@@H]3CCO3)CC2)n1 has half-life strictly beneath 2 h.
(A) no (0)
